# System: HeLa
# measurement_description: Proliferation assay (crystal violet), HeLa
# Assay type: cell-based
# experimental_conditions: Homo sapiens, HeLa, 96 h, HeLa cells; 4 days incubation; crystal violet staining; read-out: IC50 inhibition of proliferation, HeLa
pIC50: −log10 of the molar value.
Think of 6 as a floor: if pIC50 stands on it or above, it is yes (1); beneath it, no (0).

Examples with answers:
Cc1nsc(Nc2cncc(C(F)(F)F)n2)c1C(=O)Nc1ccc(F)c(C(N)=O)c1 [Example 204]    no (0)
Cc1nsc(Nc2cnc3ccccc3n2)c1C(=O)Nc1cccc(C(=O)NCCCN2CCCC2=O)c1 [Example 60]    no (0)
Cc1nsc(Nc2cnc(C(F)(F)F)cn2)c1C(=O)Nc1ccc(F)c(O[C@@H]2CCN(CCC(F)(F)F)C2)c1 [Example 414]    yes (1)
Cc1nsc(Nc2ccc(C#N)cn2)c1C(=O)Nc1cccc(C(=O)NC(C)C)c1 [Example 255]    no (0)
Cc1nsc(Nc2cnc(C(F)(F)F)cn2)c1C(=O)Nc1ccc(O[C@@H]2CN(CC(F)(F)F)C[C@@H]2F)nc1 [Example 410]    yes (1)
Cc1nsc(Nc2ccc(C#N)cn2)c1C(=O)Nc1ccc(S(C)(=O)=O)cc1 [Example 246]    no (0)
Cc1nsc(Nc2cnc(C(F)(F)F)cn2)c1C(=O)Nc1ccc(OCCCNCC(F)F)nc1 [Example 293]    no (0)
CNS(=O)(=O)c1ccc(NC(=O)c2c(C)nsc2Nc2cnc3ccccc3n2)cc1 [Example 111]    no (0)
Cc1nsc(Nc2nc3c(C(F)(F)F)cccc3s2)c1C(=O)Nc1ccc(OCCO)c(F)c1 [Example 4]    no (0)
Cc1nsc(Nc2cnc3ccccc3n2)c1C(=O)Nc1cccc(NC(=O)C(F)(F)F)c1 [Example 432]    no (0)

Please check the record Cc1nsc(Nc2cnc3ccccc3n2)c1C(=O)Nc1cccc(C(=O)N2CCN(Cc3ccc(F)cc3)CC2)c1 [Example 93] and state if its pIC50 is at or above 6. no (0)

Query CCN(C)C(=O)c1cccc(NC(=O)c2c(C)nsc2Nc2cnc3ccccc3n2)c1 [Example 67] next no (0)

Query CCCN1CC[C@H](Oc2ccc(NC(=O)c3c(C)nsc3Nc3cnc(C(F)(F)F)cn3)cn2)[C@@H](F)C1 [Example 370] next yes (1)

Query Cc1nsc(Nc2cnc3ccccc3n2)c1C(=O)Nc1cccc(C(=O)Nc2ccc(N3CCOCC3)cc2)c1 [Example 65] next no (0)

Query Cc1nsc(Nc2cnc(C(F)(F)F)cn2)c1C(=O)Nc1ccc(O[C@H]2CCCN(CC(F)(F)F)C2)nc1 [Example 389] next yes (1)

----------
Listed here: items and their measured IC50.
# Tested on: HeLa
# measurement_description: Proliferation assay (crystal violet), HeLa
# Type: cell-based
# experimental_conditions: Homo sapiens, HeLa, 96 h, HeLa cells; 4 days incubation; crystal violet staining; read-out: IC50 inhibition of proliferation, HeLa
Write the answer as a number in µM, unit excluded.

Illustrative cases are given below, each with its answer.
Cc1nsc(Nc2cnc(C(F)(F)F)cn2)c1C(=O)Nc1ccc(C(=O)NCCN2CCCC(F)(F)C2)cc1    2.8
COC(=O)CNC(=O)c1cccc(NC(=O)c2c(C)nsc2Nc2cnc3ccccc3n2)c1    10
Cc1nsc(Nc2cnc(C(F)(F)F)cn2)c1C(=O)Nc1ccc(F)c(OC[C@@H]2CCN(CC(F)F)C2)c1    0.45
Cc1nsc(Nc2cnc3ccccc3n2)c1C(=O)Nc1cccc(NS(=O)(=O)C2CN(CCC(F)(F)F)C2)c1    9.9

Would you mind telling me what IC50 value was observed for Cc1nsc(Nc2cnc3ccccc3n2)c1C(=O)Nc1cccc(NS(=O)(=O)C2CCN(CC(F)(F)F)C2)c1 (centres unmarked) ? 7.8
